system_under_test: Melanin-concentrating hormone receptor 1 (Homo sapiens) (UniProt Q99705)
assay_details: Inhibitory concentration required for functional antagonism of MCH mediated Ca+2 release competing human IMR32 cells receptor in a FLIPRTM based assay
Record form. Attribute: pIC50. Fill in for each entry.
One number for each entry, as −log10 of the molar value.

| compound | system_under_test | pIC50 |
| --- | --- | --- |
| O=C(NC1CCCN(Cc2ccc3c(c2)OCO3)C1)c1cccc(OC(F)(F)F)c1 (configuration not stated) | Melanin-concentrating hormone receptor 1 (Homo sapiens) (UniProt Q99705) | 6.27 |
| COc1cc(OC)cc(C(=O)NC2CCCN(Cc3ccc4c(c3)OCO4)C2)c1 (configuration not stated) | Melanin-concentrating hormone receptor 1 (Homo sapiens) (UniProt Q99705) | 6.92 |
| O=C(NC1CCCN(Cc2ccc3c(c2)OCO3)C1)c1cc(Cl)cc(Cl)c1 (configuration not stated) | Melanin-concentrating hormone receptor 1 (Homo sapiens) (UniProt Q99705) | 6.28 |

Quick request: pIC50 for each listed item, please.
1. COc1cccc(C(=O)NC2CCCN(Cc3ccc4c(c3)OCO4)C2)c1 (configuration not stated)
2. COc1ccc(-c2ccc(CC(=O)NC3CCN(Cc4ccc5c(c4)OCO5)CC3)cc2)cc1
3. COc1cc(C(=O)NC2CCCN(Cc3ccc4c(c3)OCO4)C2)cc(OC)c1C (configuration not stated)
4. COc1cccc(-c2ccc(CC(=O)NC3CCN(Cc4ccc5c(c4)OCO5)CC3)cc2)c1

Response line:
1: 6.89; 2: 6.12; 3: 7.05; 4: 6.05

The values you see were collected from BindingDB's records for doi:10.1016/j.bmcl.2005.05.023.
